Hello, the source for this data is patent US20220017615A1, in case you need it.

# measurement_target: T1, His-tagged CD47 recombinant protein, CD47-His (human, UniProt Q08722 19-141, limits assumed)
# T1 construct: it is not restated for CD47-His; also called human CD47-His protein; antigen CD47-His; not shown: His tag
# protocol_description: ELISA on coated CD47-His; Ab 0 nM (background)
readout_name: OD450 nm
Answers are plain numbers.

# OD450 nm lookup, item 54G8G6 (antibody, V domains shown, Murine hybridoma antibody purified on protein G) VH: QVQLQQPGADLVKPGASVKMSCKASGYTFTSYWIIWVKQRPGQGLEWIGDINPGRGSPNYNEKFKRKATLTVDTSSSTAYMQLSSLTSEDSAVYYCVRGGLRRFDHWGQGTLVTVSA VL: ENVLTQSPAIMSASPGEKVTMTCRASSSVSSSYLHWYQQKSGASPKLWIYSTSTLASGVPARFSGSGSGTSYSLTISSVEAEDAATYYCQQYSGYPYTFGGGTKLEIK
0.05
